assay.method.text: NCI Yeast Anticancer Drug Screen. Data for the mlh1 rad18 strain (AID 175)
experimental.conditions: S. cerevisiae mlh1 rad18 strain growth inhibition, stronger effect = higher value; at 50.0 µM unless noted
About 79,000 compounds went through this panel and 15% of them were active in at least one assay; those are over-represented in the sample as a whole.
Recorded growth inhibition, one value per entry.
Write down the numeric answer in % and omit the unit.

compound	value.observed
CC1C(c2ccccc2)OCCN1CN1C(=O)c2ccccc2C1=O (stereo not given)	-3.6
CC(C)[Si]1(C(C)C)OCC2OC(n3ccc(=O)[nH]c3=O)C([Se]c3ccccc3)C2O[Si](C(C)C)(C(C)C)O1 (stereo not given)	-61.9
CC1(C)OC(=O)N=C1c1ccccc1Cl	7.65
Nc1ccc(N)c2c(O)c3ccccc3c(O)c12	22

Q. # lookup: growth inhibition of CCC(=O)NC(Nc1ccccc1F)(C(F)(F)F)C(F)(F)F
A. -35.9

---

assay.method.text: NCI Yeast Anticancer Drug Screen. Data for the sgs1 mgt1 strain (AID 161);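 also: 0% = growth of cultures given vehicle only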
experimental.conditions: S. cerevisiae sgs1 mgt1 strain, stronger effect = higher value; at 50.0 µM unless noted
This is part of a sample that, as a whole, favours compounds with a hit. Of some 79,000 tested, about 15% had one in any assay.
measured.quantity: growth inhibition (%)
// note: answer is a bare numeric in %

Observe how each entry below is paired with its result.
molecule	growth inhibition (%)
CSC(=S)N/N=C(\C)c1cccs1	4.75
C=CC(C)(C)c1c(OC)cc(-c2ccccc2)oc1=O	29.6
CC(C)=CCCC(C)CCO (stereo not drawn)	-15.4

Q. Requested read-out: growth inhibition. Entry: CC(CC(=O)c1ccccc1)[N+](=O)[O-] (stereo not drawn)
A. -3.3

Q. What growth inhibition value was documented for this molecule, CN1CC2=C(NC(=S)NC2c2ccc(Cl)cc2)/C(=C/c2ccc(Cl)cc2)C1 (stereo not drawn) ?
A. 7.45

Q. # growth inhibition lookup, item O=c1[nH]c2cc(Cl)c([N+](=O)[O-])cc2o1
A. -0.5

Q. Which growth inhibition is listed for O=S=Nc1c(Cl)cc(Cl)cc1Cl ?
A. 1.55

Q. # get_value(readout='growth inhibition', item= CCN1CCNC(c2ccccc2)C1(C)C (stereo not drawn) )
A. -10

---

A collection of compounds and their measured growth inhibition
assay.method.text: NCI Yeast Anticancer Drug Screen. Data for the mec2-1 strain (AID 157)
experimental.conditions: S. cerevisiae mec2-1 strain, stronger effect = higher value; at 50.0 µM unless noted
About 79,000 compounds went through this panel and 15% of them were active in at least one assay; those are over-represented in the sample as a whole. The source made the active and inactive calls. Cut-off read from the data, not from the text of the source: active = growth inhibition above about 70%; inactive = the rest. Where a SMILES comes first, the peptide text is derived from it. [ ]: non-standard residue; d: D form. The star is where a group is joined. ξ: configuration not given here. ξF = NC(Cc1ccccc1)C(=O)O; Cbz = O=C(OCc1ccccc1)*; Aib = CC(C)(N)C(=O)O

Q. Endpoint output: growth inhibition of COS(=O)(=O)N(C)c1nc(N(C)C)nc(N(C)C)n1 . Value?
A. -12.2% (inactive)

Q. For the compound shown here, COC(=O)C(C)(C)NC(=O)C(Cc1ccccc1)NC(=O)C(C)(C)NC(=O)OCc1ccccc1 (configuration not stated) (Cbz-[Aib]-[ξF]-[Aib]-OMe) , give the reported growth inhibition.
A. 4.8% (inactive)

Q. // query growth inhibition value for entry Cc1ccc(N(C)S(=O)(=O)c2ccccc2)cc1
A. -31.3% (inactive)

Q. // returns reported growth inhibition for input COC(=O)CC1C(C)(C)C(=O)C2CC3=C4CC(=O)OC(c5ccoc5)C4(C)CCC3C1(C)C2=O (configuration not stated)
A. 2.4% (inactive)

Q. Would you kindly share the measured growth inhibition for Cc1ccc(/C=N/NC(N)=S)nn1 ?
A. 2.25% (inactive)

Q. Which growth inhibition value belongs to Cc1ccc([N+](=O)[O-])cc1NC(=O)Sc1ccc(C(C)(C)C)cc1C ?
A. 6.9% (inactive)

Q. For the compound shown here, CCN1CCNC(c2ccccc2)C1(C)C (configuration not stated) , give the reported growth inhibition.
A. -5.45% (inactive)

---

assay.method.text: NCI Yeast Anticancer Drug Screen. Data for the rad50 strain (AID 155);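 also: 0% = growth of vehicle-only cultures of the same strain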
experimental.conditions: S. cerevisiae rad50 strain growth inhibition, stronger effect = higher value; at 50.0 µM unless noted
Compounds without any hit were thinned out: in the full panel of roughly 79,000, 15% have a hit. Calls of active or inactive are those of the source. No stated cut-off is given here; in the data, active means growth inhibition above about 70%; inactive means the rest.
measured.quantity: growth inhibition

molecule	growth inhibition
CSc1ccc2nncc(SC)c2c1	64.2% (inactive)
C/C(N=NC(=S)N1CC2CCC(CC2)C1)=C1\C=CC=CN1O	80.3% (active)
Cc1ccccc1C(c1ccccc1Cl)[N+](C)(C)C (centres undefined)	35% (inactive)

Q. Would you mind telling me what growth inhibition value was observed for C/C(=N\NC(=S)Nc1ccccc1)[C@H]1C2CCC(C2)C1C/C=C\CCCC(=O)O (some centres undefined) ?
A. 26.1% (inactive)

Q. I'd like to know its growth inhibition. The molecule in question is O=c1[nH]c(=O)n(C2CC(O)C(CO)O2)cc1OCCCc1ccccc1 (centres undefined)
A. -27.8% (inactive)

Q. Entry C=C1C(=O)OCC1C(=O)OCC (centres undefined) has what growth inhibition?
A. 9.35% (inactive)

Q. Sample CCCOC(=O)C1C(c2ccc(OC)cc2)NC(c2ccc(OC)cc2)C(C(=O)OCCC)S1(=O)=O (centres undefined) — what was its growth inhibition?
A. -39.5% (inactive)

Q. Need growth inhibition of Cc1cc([N+](=O)[O-])cc(Br)c1N , thanks.
A. 23.1% (inactive)

Q. Looking for the measured growth inhibition of CN(Cc1ccc2nc(N)nc(N)c2c1)c1ccc(C(=O)NC(CCC(=O)O)C(=O)O)cc1 (centres undefined) , can you help?
A. 65.3% (inactive)

---

assay.method.text: NCI Yeast Anticancer Drug Screen. Data for the mec2-1 strain (AID 157)
experimental.conditions: S. cerevisiae mec2-1 strain, stronger effect = higher value; at 50.0 µM unless noted
This is part of a sample that, as a whole, favours compounds with a hit. Of some 79,000 tested, about 15% had one in any assay.
measured.quantity: growth inhibition (%)
# output: bare number, implied unit %

Illustrative cases are given below, each with its answer.
compound	value.observed
COc1ccc(C=O)cc1OCc1ccccc1	-29.4
COc1ccc2[nH]c3ccccc3c(=O)c2c1	-3.2
CC(C)=CC1(C)/C(=N\O)C(C)(CC(C)C)C(=O)N1O (stereo not drawn)	-15.2
CCOC(=O)C(N)CSC(=O)NC (stereo not drawn)	-3.4
Cc1ccc2ccc3ccccc3c2c1	1.45
O=C1CN(C2OC(CO)C(O)C2O)C(=O)NC1=O (stereo not drawn)	14.2
Cc1[nH]c(=O)nc2nc3ccc(Cl)cc3c(N(CCO)CCO)c12	-20.8

Proceeding to the next compound to report its growth inhibition.
Q. Query (compound): O=c1[nH]c(=O)c2cc(Cl)ccc2[nH]1 ; field requested: growth inhibition
A. 6.75

---

assay.method.text: NCI Yeast Anticancer Drug Screen. Data for the cln2 rad14 strain (AID 165);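 also: 0% = growth equal to vehicle treated cultures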
experimental.conditions: S. cerevisiae cln2 rad14 strain, stronger effect = higher value; at 50.0 µM unless noted
Protocol: Growth inhibition of yeast strains with defined genetic alterations is measured as a screen for potential anti-cancer activity. Selected strains with alterations in DNA damage repair or cell cycle control were exposed to compounds and growth inhibition was measured relative to vehicle treated controls. The strain used in this assay is cln2 rad14
This is part of a sample that, as a whole, favours compounds with a hit. Of some 79,000 tested, about 15% had one in any assay.
measured.quantity: growth inhibition (%)
The response must be a number in % with no trailing unit.

Examples from the recorded data:
compound	measured.quantity	result.units	value.observed
O=C1NCC2(CCNCC2)N1	growth inhibition	%	15.6
C#CC1(O)C2CCc3cc(OC)ccc3C2CCC1(C)C(=O)OC (stereo not given)	growth inhibition	%	6.85
CC(O)C(=O)OCCOc1ccc(Cl)cc1Cl (stereo not given)	growth inhibition	%	-38.1
Cc1cc([N+](=O)[O-])ccc1NC(=O)n1nnc2cc(Cl)ccc21	growth inhibition	%	1.1

Q. Name the recorded growth inhibition for CC1(C)Oc2nc[nH]c(=O)c2C1c1ccccc1 (stereo not given) .
A. -20.1

---

Quick list: growth inhibition per entry.
assay.method.text: NCI Yeast Anticancer Drug Screen. Data for the sgs1 mgt1 strain (AID 161);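 also: 0% = growth of cultures given vehicle only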
experimental.conditions: S. cerevisiae sgs1 mgt1 strain, stronger effect = higher value; at 50.0 µM unless noted
This is part of a sample that, as a whole, favours compounds with a hit. Of some 79,000 tested, about 15% had one in any assay.
// note: answer is a bare numeric in %

Answered examples (3):
molecule	growth inhibition (%)
Nc1c(F)cc(I)cc1F	-2.2
CC(=O)Nc1c(N)c2ccccc2c2ccccc12	-22.7
COc1cc([C@@H]2c3cc4c(cc3[C@H](OC3OC5COC(c6ccco6)OC5C(O)C3O)C3COC(=O)[C@@H]32)OCO4)cc(OC)c1OC (some centres undefined)	7.6

Then this molecule:
Q. Find the recorded growth inhibition belonging to O=C1CSC(c2cccc([N+](=O)[O-])c2)N1c1nncs1 (centres undefined) and report it.
A. 6.8
